- Test system: 945468-187-T-J3-PDC spheroids with HUVEC/MSC, viability
- assay procedure: Anticancer human tumor 945468-187-T-J3-PDC patient-derived rectal carcinoma cell line growth inhibition [PI3K]
- condition description: second compound 0.316 µM; first compound 0.1 µM; hits give low values
- From the text: Combinatorial screen of targeted agents with the PI3K inhibitors inavolisib, alpelisib, duvelisib, and copanlisib in multi-cell type tumor spheroids A high-throughput screen of multi-cell type tumor spheroids was designed to identify active combinations of targeted small molecules and PI3K pathway inhibitors. […] Compounds. […] If the clinical Cmax for an agent had not been determined, the highest concentration tested was 10 microM. […]
measurement label: viability, T/C (%)

1. C=CC(=O)N1CCN(c2nc(=O)n(-c3c(C)ccnc3C(C)C)c3nc(-c4c(O)cccc4F)c(F)cc23)C(C)C1 (stereo not given) + Cc1nc(NC(=O)N2CCCC2C(N)=O)sc1-c1ccnc(C(C)(C)C(F)(F)F)c1	102
2. CC1(C)CCC(CN2CCN(c3ccc(C(=O)NS(=O)(=O)c4ccc(NCC5CCOCC5)c([N+](=O)[O-])c4)c(Oc4cnc5[nH]ccc5c4)c3)CC2)=C(c2ccc(Cl)cc2)C1 + CC(Nc1ccc2c(c1)OCCn1cc(N3C(=O)OCC3C(F)F)nc1-2)C(N)=O	103
3. CC1(C)CCC(CN2CCN(c3ccc(C(=O)NS(=O)(=O)c4ccc(NCC5CCOCC5)c([N+](=O)[O-])c4)c(Oc4cnc5[nH]ccc5c4)c3)CC2)=C(c2ccc(Cl)cc2)C1 + COc1c(OCCCN2CCOCC2)ccc2c3n(c(=NC(=O)c4cnc(N)nc4)nc12)CCN3	20.7
4. CCCS(=O)(=O)Nc1ccc(F)c(C(=O)c2c[nH]c3ncc(-c4ccc(Cl)cc4)cc23)c1F + CC(Nc1ncnc2nc[nH]c12)c1cc2cccc(Cl)c2c(=O)n1-c1ccccc1	101
5. Cn1ncnc1[C@H]1c2n[nH]c(=O)c3cc(F)cc(c23)N[C@@H]1c1ccc(F)cc1 + CC(Nc1ncnc2nc[nH]c12)c1cc2cccc(Cl)c2c(=O)n1-c1ccccc1	101
6. C#Cc1c(F)ccc2cc(O)cc(-c3ncc4c(N5CC6CCC(C5)N6)nc(OCC56CCCN5CC(F)C6)nc4c3F)c12 (stereo not given) + CC(Nc1ncnc2nc[nH]c12)c1cc2cccc(Cl)c2c(=O)n1-c1ccccc1	97.4
7. CCN1CCN(Cc2ccc(Nc3ncc(F)c(-c4cc(F)c5nc(C)n(C(C)C)c5c4)n3)nc2)CC1 + CC(Nc1ccc2c(c1)OCCn1cc(N3C(=O)OCC3C(F)F)nc1-2)C(N)=O	69.7
8. Cn1nccc1Nc1nccc(-c2ccn(C(CO)c3ccc(Cl)c(F)c3)c(=O)c2)n1 (stereo not given) + COc1c(OCCCN2CCOCC2)ccc2c3n(c(=NC(=O)c4cnc(N)nc4)nc12)CCN3	18.9
9. Cn1ncc(Cl)c1-c1cc(C(=O)NC(CN)Cc2cccc(F)c2)sc1Cl (stereo not given) + Cc1nc(NC(=O)N2CCCC2C(N)=O)sc1-c1ccnc(C(C)(C)C(F)(F)F)c1	119
10. CC(C)n1nc(-c2ccc3oc(N)nc3c2)c2c(N)ncnc21 + CC(Nc1ncnc2nc[nH]c12)c1cc2cccc(Cl)c2c(=O)n1-c1ccccc1	59.5

###

- System: 945468-187-T-J3-PDC spheroids with HUVEC/MSC, viability
- assay procedure: Anticancer human tumor 945468-187-T-J3-PDC cell line growth inhibition [PI3K]; active = viability on the fitted dose curve at most 10% of control; inactive = the rest;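 also: spheroids exposed to agents for 7 days before viability read; 100% = DMSO vehicle control viability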
- condition description: second compound 1 µM; first compound 10 µM
Outcome codes: 1 for active, 0 for inactive

1) CC(Cn1ccc(-c2ccc(C#N)c(Cl)c2)n1)NC(=O)c1cc(C(C)O)[nH]n1 (stereo not given) + COc1c(OCCCN2CCOCC2)ccc2c3n(c(=NC(=O)c4cnc(N)nc4)nc12)CCN3	0
2) CC1(C)CCC(CN2CCN(c3ccc(C(=O)NS(=O)(=O)c4ccc(NCC5CCOCC5)c([N+](=O)[O-])c4)c(Oc4cnc5[nH]ccc5c4)c3)CC2)=C(c2ccc(Cl)cc2)C1 + Cc1nc(NC(=O)N2CCCC2C(N)=O)sc1-c1ccnc(C(C)(C)C(F)(F)F)c1	0
3) CC1(C)CCC(Nc2ncc(C(F)(F)F)c(-c3c[nH]c4c(P(C)(C)=O)c(C#N)ccc34)n2)CN1 (stereo not given) + Cc1nc(NC(=O)N2CCCC2C(N)=O)sc1-c1ccnc(C(C)(C)C(F)(F)F)c1	1
4) CC1(C)CCC(CN2CCN(c3ccc(C(=O)NS(=O)(=O)c4ccc(NCC5CCOCC5)c([N+](=O)[O-])c4)c(Oc4cnc5[nH]ccc5c4)c3)CC2)=C(c2ccc(Cl)cc2)C1 + CC(Nc1ccc2c(c1)OCCn1cc(N3C(=O)OCC3C(F)F)nc1-2)C(N)=O	0
5) CNC(=O)c1ccc(N2C(=S)N(c3ccc(C#N)c(C(F)(F)F)c3)C(=O)C2(C)C)cc1F + COc1c(OCCCN2CCOCC2)ccc2c3n(c(=NC(=O)c4cnc(N)nc4)nc12)CCN3	0
6) CC1(C)CCC(CN2CCN(c3ccc(C(=O)NS(=O)(=O)c4ccc(NCC5CCOCC5)c([N+](=O)[O-])c4)c(Oc4cnc5[nH]ccc5c4)c3)CC2)=C(c2ccc(Cl)cc2)C1 + COc1c(OCCCN2CCOCC2)ccc2c3n(c(=NC(=O)c4cnc(N)nc4)nc12)CCN3	0
7) C[C@@H](NC(=O)c1ncnc(N)c1Cl)c1ncc(C(=O)Nc2cc(C(F)(F)F)c(Cl)cn2)s1 + Cc1nc(NC(=O)N2CCCC2C(N)=O)sc1-c1ccnc(C(C)(C)C(F)(F)F)c1	0
8) Cn1nccc1Nc1nccc(-c2ccn(C(CO)c3ccc(Cl)c(F)c3)c(=O)c2)n1 (stereo not given) + CC(Nc1ccc2c(c1)OCCn1cc(N3C(=O)OCC3C(F)F)nc1-2)C(N)=O	0
9) C#Cc1c(F)ccc2cc(O)cc(-c3ncc4c(N5CC6CCC(C5)N6)nc(OCC56CCCN5CC(F)C6)nc4c3F)c12 (stereo not given) + COc1c(OCCCN2CCOCC2)ccc2c3n(c(=NC(=O)c4cnc(N)nc4)nc12)CCN3	1
10) CC(C)NCC(C(=O)N1CCN(c2ncnc3c2C(C)CC3O)CC1)c1ccc(Cl)cc1 (stereo not given) + CC(Nc1ccc2c(c1)OCCn1cc(N3C(=O)OCC3C(F)F)nc1-2)C(N)=O	0

###

- System: 945468-187-T-J3-PDC spheroids with HUVEC/MSC, viability
- assay procedure: Anticancer human tumor 945468-187-T-J3-PDC cell line growth inhibition [PI3K];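 also: spheroids exposed to agents for 7 days before viability read; 100% = DMSO vehicle control viability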
- condition description: second compound 0.0316 µM; first compound 1 µM; hits give low values
measurement label: viability, T/C (%)

1) CC(C)NCC(C(=O)N1CCN(c2ncnc3c2C(C)CC3O)CC1)c1ccc(Cl)cc1 (stereo not drawn) + Cc1nc(NC(=O)N2CCCC2C(N)=O)sc1-c1ccnc(C(C)(C)C(F)(F)F)c1	94.1
2) Cn1ncc(Cl)c1-c1cc(C(=O)NC(CN)Cc2cccc(F)c2)sc1Cl (stereo not drawn) + CC(Nc1ncnc2nc[nH]c12)c1cc2cccc(Cl)c2c(=O)n1-c1ccccc1	59.3
3) C#Cc1c(F)ccc2cc(O)cc(-c3ncc4c(N5CC6CCC(C5)N6)nc(OCC56CCCN5CC(F)C6)nc4c3F)c12 (stereo not drawn) + COc1c(OCCCN2CCOCC2)ccc2c3n(c(=NC(=O)c4cnc(N)nc4)nc12)CCN3	87.2

###

- Tested on: 945468-187-T-J3-PDC spheroids with HUVEC/MSC, viability
- assay procedure: Anticancer human tumor 945468-187-T-J3-PDC cell line growth inhibition [PI3K];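 also: spheroids exposed to agents for 7 days before viability read; 100% = DMSO vehicle control viability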
- condition description: second compound 0.01 µM; first compound 1 µM; hits give low values
A collection of molecules and their measured viability, T/C
measurement label: viability, T/C (%)

1) C[C@@H](NC(=O)c1ncnc(N)c1Cl)c1ncc(C(=O)Nc2cc(C(F)(F)F)c(Cl)cn2)s1 + CC(Nc1ccc2c(c1)OCCn1cc(N3C(=O)OCC3C(F)F)nc1-2)C(N)=O	88.4
2) Cn1ncc(Cl)c1-c1cc(C(=O)NC(CN)Cc2cccc(F)c2)sc1Cl (stereo unspecified) + COc1c(OCCCN2CCOCC2)ccc2c3n(c(=NC(=O)c4cnc(N)nc4)nc12)CCN3	36.9
3) CC(Cn1ccc(-c2ccc(C#N)c(Cl)c2)n1)NC(=O)c1cc(C(C)O)[nH]n1 (stereo unspecified) + COc1c(OCCCN2CCOCC2)ccc2c3n(c(=NC(=O)c4cnc(N)nc4)nc12)CCN3	94.8
4) C=CC(=O)N1CCN(c2nc(=O)n(-c3c(C)ccnc3C(C)C)c3nc(-c4c(O)cccc4F)c(F)cc23)C(C)C1 (stereo unspecified) + COc1c(OCCCN2CCOCC2)ccc2c3n(c(=NC(=O)c4cnc(N)nc4)nc12)CCN3	97.5
5) CC(C)NCC(C(=O)N1CCN(c2ncnc3c2C(C)CC3O)CC1)c1ccc(Cl)cc1 (stereo unspecified) + CC(Nc1ccc2c(c1)OCCn1cc(N3C(=O)OCC3C(F)F)nc1-2)C(N)=O	96.7
6) C#Cc1c(F)ccc2cc(O)cc(-c3ncc4c(N5CC6CCC(C5)N6)nc(OCC56CCCN5CC(F)C6)nc4c3F)c12 (stereo unspecified) + CC(Nc1ccc2c(c1)OCCn1cc(N3C(=O)OCC3C(F)F)nc1-2)C(N)=O	115
7) CCCS(=O)(=O)Nc1ccc(F)c(C(=O)c2c[nH]c3ncc(-c4ccc(Cl)cc4)cc23)c1F + CC(Nc1ccc2c(c1)OCCn1cc(N3C(=O)OCC3C(F)F)nc1-2)C(N)=O	102
8) CC1(C)CCC(Nc2ncc(C(F)(F)F)c(-c3c[nH]c4c(P(C)(C)=O)c(C#N)ccc34)n2)CN1 (stereo unspecified) + COc1c(OCCCN2CCOCC2)ccc2c3n(c(=NC(=O)c4cnc(N)nc4)nc12)CCN3	56
9) CC(C)NCC(C(=O)N1CCN(c2ncnc3c2C(C)CC3O)CC1)c1ccc(Cl)cc1 (stereo unspecified) + COc1c(OCCCN2CCOCC2)ccc2c3n(c(=NC(=O)c4cnc(N)nc4)nc12)CCN3	81.7
10) C#Cc1c(F)ccc2cc(O)cc(-c3ncc4c(N5CC6CCC(C5)N6)nc(OCC56CCCN5CC(F)C6)nc4c3F)c12 (stereo unspecified) + COc1c(OCCCN2CCOCC2)ccc2c3n(c(=NC(=O)c4cnc(N)nc4)nc12)CCN3	89
11) CC1(C)CCC(Nc2ncc(C(F)(F)F)c(-c3c[nH]c4c(P(C)(C)=O)c(C#N)ccc34)n2)CN1 (stereo unspecified) + CC(Nc1ccc2c(c1)OCCn1cc(N3C(=O)OCC3C(F)F)nc1-2)C(N)=O	94.7
